Molecular target: Retinoic acid receptor beta (Homo sapiens) (UniProt P10826)
Sequence (whole entry): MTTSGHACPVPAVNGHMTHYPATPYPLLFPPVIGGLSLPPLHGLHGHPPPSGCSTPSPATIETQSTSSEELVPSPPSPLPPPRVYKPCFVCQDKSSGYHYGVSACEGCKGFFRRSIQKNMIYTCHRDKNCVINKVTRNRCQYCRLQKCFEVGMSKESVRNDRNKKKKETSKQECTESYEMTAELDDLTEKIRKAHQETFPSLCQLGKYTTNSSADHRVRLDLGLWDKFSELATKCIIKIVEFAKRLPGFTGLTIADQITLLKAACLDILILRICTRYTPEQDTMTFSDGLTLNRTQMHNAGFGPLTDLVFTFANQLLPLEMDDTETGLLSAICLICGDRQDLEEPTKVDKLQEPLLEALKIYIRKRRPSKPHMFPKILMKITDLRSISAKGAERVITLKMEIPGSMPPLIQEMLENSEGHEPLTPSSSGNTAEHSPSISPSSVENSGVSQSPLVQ
Test: Agonist activity for Retinoic acid receptor beta as photons in presence and absence of ligand
Format: functional
Parameters: unit not given here
Binary call on Activity with cut-off 7: strictly below means 1.0, and equality or higher means 0.0.

>>> label_value("CC1=C(/C=C/C(C)=C/C=C(C#N)/C(C)=C\\C(=O)O)C(C)(C)CCC1")
0.0
>>> label_value("C=C(/C=C/C1=C(C)CCCC1(C)C)C/C=C/C(C)=C\\C(=O)O")
0.0
>>> label_value("CC1=C(/C=C/C(C)=C/C=C(\\C#N)C(C)=C(C(=O)O)C(=O)O)C(C)(C)CCC1")
0.0
>>> label_value("COC(=O)\\C=C(C)/C(C#N)=C/C=C(C)/C=C/C1=C(C)CCCC1(C)C")
1.0
>>> label_value("C=C(/C=C/c1ccccc1)C/C=C/C(C)=C\\C(=O)O")
1.0
>>> label_value("C=C(/C=C/C1=C(C)CCCC1(C)C)C/C=C/C=C\\C(=O)O")
0.0

====

Tested on: NB-4
Test: Ability to induce maturation and cell death of NB4 cells labelled with V-FITC on day 3
Format: functional, Homo sapiens
Set-up: concentration or dose not given beside the values
result.type: Activity (%)

>>> endpoint_value("C/C(=C\\c1ccc(C(=O)O)cc1)c1ccc2c(c1)C(C)(C)CCC2(C)C")
14
>>> endpoint_value("CC1=C(/C=C/C(C)=C/C=C(\\C#N)C(C)=C(C(=O)O)C(=O)O)C(C)(C)CCC1")
11
>>> endpoint_value("CC1=C(/C=C/C(C)=C/C=C(C#N)/C(C)=C\\C(=O)O)C(C)(C)CCC1")
9
>>> endpoint_value("C=C(/C=C/C1=C(C)CCCC1(C)C)C/C=C/C=C\\C(=O)O")
10
>>> endpoint_value("COC(=O)\\C=C(C)/C(C#N)=C/C=C(C)/C=C/C1=C(C)CCCC1(C)C")
13
>>> endpoint_value("C=C(/C=C/C1=C(C)CCCC1(C)C)C/C=C/C(C)=C\\C(=O)O")
11
>>> endpoint_value("CC1=C(/C=C/C(C)=C/C=C/C(C)=C/C(=O)O)C(C)(C)CCC1 [TRETINOIN]")
14
>>> endpoint_value("C=C(/C=C/c1ccccc1)C/C=C/C(C)=C\\C(=O)O")
9
>>> endpoint_value("C=C(/C=C/C1=C(C)CCCC1(C)C)C/C=C/C(C)=C/C(=O)O")
18
>>> endpoint_value("CC1(C)CCC(C)(C)c2cc(C3(c4ccc(C(=O)O)cc4)OCCO3)ccc21")
11
